All values here come from patent US20190367616A1.

target: T1, human PD-1 ECD (Acro Biosystems cat. no. PD1-H52219) (human, UniProt Q15116 25-170)
T1 construct: extracellular domain; Bought monomeric ECD; also called monomeric PD-1 antigen
T1 sequence (Q15116 25-170, one chain of several): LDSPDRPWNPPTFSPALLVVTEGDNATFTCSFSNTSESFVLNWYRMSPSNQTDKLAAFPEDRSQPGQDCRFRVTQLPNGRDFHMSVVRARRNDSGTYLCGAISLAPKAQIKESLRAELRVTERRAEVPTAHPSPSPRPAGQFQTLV
methodNotes: SPR, antibody on sensor, monomeric PD-1 ECD in solution
koff values, listed per item
Give just the number in s⁻¹; leave the unit off.

Check out these entries, answers already filled in.
binder	unitsText	koff
antibody 18098 (antibody, V domains shown, Tested as human IgG1 L234A/L235A (LALA), kappa) VH: QVQLQESGGGLVRPGGSLRLSCAASGFTFSSFAMNWVRQAPGKGLVWVSTITGGGTTSYYADSVKGRFTISRDNSKSTLFLQMNSLRAEDTAVYYCAKWGSWSAGAFDIWGQGTTVTVSS VL: DIQLTQSPSSVSASVGDRVTITCRASQGISSWLAWYQQKPGKAPKLLIYAASSLQSGVPSRFSGSGSGTDFTLTISSLQPEDFATYYCQQANSFPWTFGQGTKVEIKR	s⁻¹	0.00023
antibody 18049 (antibody, V domains shown, Tested as human IgG1 L234A/L235A (LALA), kappa) VH: QVQLVESGGGVVQPGRSLRLSCAASGFTFSNYGMHWVRQAPGKGLEWVAVIWYDGSDKYYADSVKGRFTISRDNSKNTLYLQMNSLRAEDTAVYYCAGGGNYYGDFWGQGTLVTVSS VL: EIVMTQSPSSLSASVGDRVTITCRASQGIRNDLGWYQQKPGKAPKRLIYVASNLQSGVPSRFSGSGSGTEFTLTISSLQPEDFATYYCLQYNSYPWTFGQGTKVEIKR	s⁻¹	6e-05

Now examine the next entry.
What value of koff has been recorded for this entry: antibody 18113 (antibody, V domains shown, Tested as human IgG1 L234A/L235A (LALA), kappa) VH: QVQLVESGGGLVKPGGSLRLSCAASGFTFSDYYMSWIRQAPGKGLEWVSYISSSGSTIYYADSAKGRFTISRDNAKNSLYLQMNSLRAEDTAVYYCARDTNWAFDYWGQGTLVTVSS VL: DIQLTQSPDSLAVSLGERATINCKSSQSVFYSANNKNYLAWYQQKPGQPPKLLIYWTSTRESGVPDRFRGSGSGTDFTLTISSLQAEDVAVYYCQQFYSTPRTFGQGTKVEIKR
0.0001
